System tested: S. aureus GyrB ATPase (Staphylococcus aureus, UniProt P0A0K8)
Sequence (P0A0K8 whole entry): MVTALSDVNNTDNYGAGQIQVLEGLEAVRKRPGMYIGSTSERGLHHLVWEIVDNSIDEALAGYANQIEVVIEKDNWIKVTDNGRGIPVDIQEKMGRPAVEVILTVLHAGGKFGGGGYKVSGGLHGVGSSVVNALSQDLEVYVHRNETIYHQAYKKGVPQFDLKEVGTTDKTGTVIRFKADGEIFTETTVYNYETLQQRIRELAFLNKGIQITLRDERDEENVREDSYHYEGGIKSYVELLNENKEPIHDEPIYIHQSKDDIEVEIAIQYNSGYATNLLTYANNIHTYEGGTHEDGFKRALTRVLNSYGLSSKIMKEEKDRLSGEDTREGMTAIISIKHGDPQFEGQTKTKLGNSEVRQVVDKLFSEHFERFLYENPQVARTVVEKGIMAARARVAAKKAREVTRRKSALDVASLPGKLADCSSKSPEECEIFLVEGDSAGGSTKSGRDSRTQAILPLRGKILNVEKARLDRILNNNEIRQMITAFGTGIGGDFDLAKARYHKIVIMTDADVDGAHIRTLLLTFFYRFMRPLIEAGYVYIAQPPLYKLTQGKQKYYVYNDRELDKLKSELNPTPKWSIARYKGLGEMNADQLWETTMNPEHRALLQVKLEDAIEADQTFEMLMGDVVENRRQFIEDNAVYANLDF
Sequence (P0AES4 whole entry, further chain): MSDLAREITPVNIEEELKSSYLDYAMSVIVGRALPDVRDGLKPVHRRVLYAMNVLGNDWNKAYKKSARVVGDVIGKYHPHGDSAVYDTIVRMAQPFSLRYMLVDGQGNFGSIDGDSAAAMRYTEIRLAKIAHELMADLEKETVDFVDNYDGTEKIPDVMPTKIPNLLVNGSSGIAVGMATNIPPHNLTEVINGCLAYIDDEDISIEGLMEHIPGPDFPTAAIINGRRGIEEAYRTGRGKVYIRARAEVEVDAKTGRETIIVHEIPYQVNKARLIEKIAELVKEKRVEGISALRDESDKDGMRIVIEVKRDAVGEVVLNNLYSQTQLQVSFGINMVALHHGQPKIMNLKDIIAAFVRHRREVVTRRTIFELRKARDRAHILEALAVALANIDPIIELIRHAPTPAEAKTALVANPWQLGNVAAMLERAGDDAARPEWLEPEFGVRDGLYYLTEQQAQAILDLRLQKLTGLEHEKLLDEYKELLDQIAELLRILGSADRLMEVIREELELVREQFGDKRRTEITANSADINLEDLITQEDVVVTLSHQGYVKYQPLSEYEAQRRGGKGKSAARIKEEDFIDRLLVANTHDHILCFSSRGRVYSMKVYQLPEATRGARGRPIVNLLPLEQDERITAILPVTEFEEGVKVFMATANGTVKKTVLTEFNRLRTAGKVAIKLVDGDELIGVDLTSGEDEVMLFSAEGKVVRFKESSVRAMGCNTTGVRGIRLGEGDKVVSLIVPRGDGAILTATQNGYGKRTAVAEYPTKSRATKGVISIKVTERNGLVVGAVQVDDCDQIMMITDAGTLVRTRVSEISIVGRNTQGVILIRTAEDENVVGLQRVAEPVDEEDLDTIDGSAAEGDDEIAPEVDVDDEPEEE
Assay info: S. aureus (SAU) GyrB ATPase inhibition, malachite green phosphate detection (E. coli GyrA + S. aureus GyrB)
Format: biochemical
Experimental conditions: compound concentration of 1.0 μM unless otherwise noted; average value where assay was carried out more than once; read-out: S. aureus (SAU) GyrB ATPase % Inhibition
Structures can show the parent of a compound that is named as a salt.
Value type: inhibition at 1 µM (%)

* CCNC(=O)Nc1cc(-c2nc(C(F)(F)F)cs2)c(-c2cncc(C#N)n2)cn1 [Example 31] | 113
* CCNC(=O)Nc1cc(-c2nc(C(F)(F)F)cs2)c(-c2cc(OC(C)C)nc(-c3n[nH]c(=O)o3)c2)cn1 [Example 79] | 95
* CCNC(=O)Nc1cc(-c2nc(C(F)(F)F)cs2)c(-c2cncc(-c3nn(C(=O)N4CCOCC4)c(=O)o3)c2)cn1 [Example 176] | 98
* CCNC(=O)Nc1cc(-c2ccnn2C)c(-c2cncc(-c3n[nH]c(=O)o3)c2)cn1 [Example 28] | 70
* CCNC(=O)Nc1cc(-c2nc(C(F)(F)F)c(C(=O)NCCOC)s2)c(-c2cncc(-c3n[nH]c(=O)o3)c2)cn1 [Example 59] | 98
* CCCNC(=O)Nc1cc(-c2nc(C(F)(F)F)cs2)c(-c2cc(-c3nnc(C)o3)cnc2OC2CCOCC2)cn1 [Example 169] | 96
* CCNC(=O)Nc1cc(-c2nc(C3CC3)cs2)c(-c2cncc(-c3n[nH]c(=O)o3)c2)cn1 [Example 210] | 65
* CCNC(=O)Nc1cc(-c2nc(C(F)(F)F)cs2)c(-c2cncc(-c3nnc(C(C)O)o3)c2)cn1 (stereo not shown) [Example 275] | 98
* CCNC(=O)Nc1cc(-c2nc(-c3cccnc3OCCOC)cs2)c(-c2cncc(-c3n[nH]c(=O)o3)c2)cn1 [Example 208] | 100
* CCNC(=O)Nc1cc(-c2nc(C(F)(F)F)c(C)s2)c(-c2cnc(OC)c(-c3n[nH]c(=O)o3)c2)cn1 [Example 144] | 90
* CCNC(=O)Nc1cc(-c2nc(C(F)(F)F)cs2)c(-c2cncc(-c3nnc(COC)o3)c2)cn1 [Example 270] | 97
* CCNC(=O)Nc1cc(-c2nc(C(F)(F)F)cs2)c(-c2cncc(-c3nnc([C@H](N)C(C)C)o3)c2)cn1 [Example 280] | 95
* CCNC(=O)Nc1cc(-c2nc(C(F)(F)F)cs2)c(-c2cc(-c3n[nH]c(=O)o3)cnc2OCC2CCN(C)CC2)cn1 [Example 223] | 95
* CCNC(=O)Nc1cc(-c2nc(-c3ccccc3)cs2)c(-c2cc(OC(C)C)nc(-c3nnc(C)o3)c2)cn1 [Example 82] | 86
* CCNC(=O)Nc1cc(-c2nc(C(F)(F)F)cs2)c(-c2cc(-c3nnc(C)o3)cnc2OCCN(CC)CC)cn1 [Example 115] | 96
* CCNC(=O)Nc1cc(-c2nc(C(F)(F)F)cs2)c(-c2cncc(-c3nnc([C@@H]4COCCN4)o3)c2)cn1 [Example 239] | 94
* O=C(Nc1cc(-c2nc(C(F)(F)F)cs2)c(-c2cncc(-c3n[nH]c(=O)o3)c2)cn1)NC1CCCCC1 [Example 46] | -1
* CCNC(=O)Nc1cc(-c2nc(C(F)(F)F)cs2)c(-c2cc(-c3nnc([C@@H](N)C(C)C)o3)cnc2OCCN(CC)CC)cn1 [Example 122, hydrochloride] | 102
* CCNC(=O)Nc1cc(-c2nc(C(F)(F)F)cs2)c(-c2cncc(-c3n[nH]c(=O)o3)n2)cn1 [Example 35] | 103
* CCNC(=O)Nc1cc(-c2nc(C(F)(F)F)cs2)c(-c2cncc(-c3nnc(N4CCN(C)CC4)o3)c2)cn1 [Example 155] | 96
* CCNC(=O)Nc1cc(-c2nc(C(F)(F)F)c(C(=O)NC3CCCCC3)s2)c(-c2cncc(-c3nnc(C)o3)c2)cn1 [Example 70] | 96
* CCNC(=O)Nc1cc(-c2nc(C(F)(F)F)cs2)c(-c2cc(-c3n[nH]c(=O)o3)cnc2OCCCC2CCCC2)cn1 [Example 220] | 91
* CCNC(=O)Nc1cc(-c2nc(C(F)(F)F)cs2)c(-c2ccnc(-c3n[nH]c(=O)o3)c2)cn1 [Example 33] | 117
* CCNC(=O)Nc1cc(-c2nc(C(F)(F)F)cs2)c(-c2nc(-c3ncccn3)c(-c3n[nH]c(=O)o3)s2)cn1 [Example 36] | 107
* CCNC(=O)Nc1cc(-c2nc(C(F)(F)F)cs2)c(-c2cc(-c3n[nH]c(=O)o3)cnc2OCCC(=O)O)cn1 [Example 111] | 106
* CCNC(=O)Nc1cc(-c2nc(-c3ccccc3)cs2)c(-c2ccnc(-c3nnc(C)o3)c2)cn1 [Example 96] | 100
* CCNC(=O)Nc1cc(-c2nc(C(F)(F)F)c(CNC3CCOCC3)s2)c(-c2cncc(-c3nnc(C)o3)c2)cn1 [Example 58] | 97
* CCNC(=O)Nc1cc(-c2nc(C(F)(F)F)cs2)c(-c2cc(-c3n[nH]c(=O)o3)cnc2OC[C@@H](C)O)cn1 [Example 225] | 117
